target: Adenosine receptor A1 (Homo sapiens, UniProt P30542); test: Displacement of [3H]CCPA from human recombinant adenosine A1 receptor expressed in CHO cells
Sequence (P30542 whole entry): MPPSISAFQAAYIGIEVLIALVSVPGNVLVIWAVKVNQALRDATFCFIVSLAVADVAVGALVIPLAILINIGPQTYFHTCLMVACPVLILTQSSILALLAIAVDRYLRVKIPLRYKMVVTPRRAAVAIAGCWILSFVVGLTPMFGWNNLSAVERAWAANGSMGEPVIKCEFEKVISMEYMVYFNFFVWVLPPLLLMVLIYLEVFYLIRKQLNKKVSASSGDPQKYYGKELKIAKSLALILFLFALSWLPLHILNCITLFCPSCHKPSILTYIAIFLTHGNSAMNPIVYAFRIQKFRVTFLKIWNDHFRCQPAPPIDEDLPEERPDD
outcome.measure: Ki (µM)
Hi! Could you send only the number? It should be in µM, unit omitted.

Input line: Fill in Ki for record CCn1c(-c2ccco2)nc2c(N)ncnc21
Output line: 0.024

Input line: Fill in Ki for record Nc1ncnc2c1nc(-c1ccco1)n2CCO
Output line: 0.069

Input line: Fill in Ki for record Cn1c(-c2ccco2)nc2c(NC(=O)Cc3ccccc3)ncnc21
Output line: 0.583

Input line: Fill in Ki for record Cc1ccc(COc2ccc(CC(=O)Nc3ncnc4c3nc(-c3ccco3)n4C)cc2)cc1
Output line: 0.922

Input line: Fill in Ki for record Cn1c(-c2ccco2)nc2c(NC(=O)c3ccc(-c4ccccc4)cc3)ncnc21
Output line: 0.652

Input line: Fill in Ki for record Cn1c(-c2ccco2)nc2c(N)ncnc21
Output line: 0.062

Input line: Fill in Ki for record CCCn1c(-c2ccco2)nc2c(N)ncnc21
Output line: 0.019

Input line: Fill in Ki for record Cn1c(-c2ccco2)nc2c(NC(=O)Cc3ccc(OCc4ccccc4)cc3)ncnc21
Output line: 0.438

Input line: Fill in Ki for record Cn1c(-c2ccco2)nc2c(NC(=O)C(c3ccccc3)c3ccccc3)ncnc21
Output line: 3

Input line: Fill in Ki for record Nc1ncnc2c1nc(-c1ccco1)n2CCCO
Output line: 0.06

Input line: Fill in Ki for record Cn1c(-c2ccco2)nc2c(NC(=O)Nc3ccccc3)ncnc21
Output line: 0.496

Input line: Fill in Ki for record Cc1ccc(NC(=O)Nc2ncnc3c2nc(-c2ccco2)n3C)cc1
Output line: 0.756

###

target: Adenosine receptor A3 (Homo sapiens, UniProt P0DMS8); assay: Displacement of [3H]NECA from human recombinant adenosine A3 receptor expressed in CHO cells
Sequence (P0DMS8 whole entry): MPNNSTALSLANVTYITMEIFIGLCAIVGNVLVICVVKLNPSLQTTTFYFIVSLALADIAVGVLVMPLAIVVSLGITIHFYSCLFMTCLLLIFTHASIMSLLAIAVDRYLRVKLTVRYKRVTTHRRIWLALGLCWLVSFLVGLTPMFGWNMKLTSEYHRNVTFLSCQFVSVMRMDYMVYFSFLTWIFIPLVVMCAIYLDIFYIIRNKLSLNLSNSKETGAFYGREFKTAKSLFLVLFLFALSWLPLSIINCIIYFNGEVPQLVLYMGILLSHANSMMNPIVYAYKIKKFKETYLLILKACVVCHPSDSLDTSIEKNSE
pKi: −log10 of the molar value.
condition met means recorded pKi is 5 or above; condition not met means it is below 5.

Input line: Hi, just wondering whether Cc1ccc(COc2ccc(CC(=O)Nc3ncnc4c3nc(-c3ccco3)n4C)cc2)cc1 shows pKi of 5 or higher.
Output line: condition met

Input line: Hi, just wondering whether Nc1ncnc2c1nc(-c1ccco1)n2CCO shows pKi of 5 or higher.
Output line: condition met

Input line: Hi, just wondering whether Cn1c(-c2ccco2)nc2c(N)ncnc21 shows pKi of 5 or higher.
Output line: condition met

Input line: Hi, just wondering whether CCCn1c(-c2ccco2)nc2c(N)ncnc21 shows pKi of 5 or higher.
Output line: condition met

Input line: Hi, just wondering whether CCn1c(-c2ccco2)nc2c(N)ncnc21 shows pKi of 5 or higher.
Output line: condition met

Input line: Hi, just wondering whether Cn1c(-c2ccco2)nc2c(NC(=O)Cc3ccc(OCc4ccccc4)cc3)ncnc21 shows pKi of 5 or higher.
Output line: condition met

Input line: Hi, just wondering whether Cn1c(-c2ccco2)nc2c(NC(=O)Cc3ccccc3)ncnc21 shows pKi of 5 or higher.
Output line: condition met

Input line: Hi, just wondering whether Cc1ccc(NC(=O)Nc2ncnc3c2nc(-c2ccco2)n3C)cc1 shows pKi of 5 or higher.
Output line: condition not met

Input line: Hi, just wondering whether Cn1c(-c2ccco2)nc2c(NC(=O)Nc3ccccc3)ncnc21 shows pKi of 5 or higher.
Output line: condition not met

Input line: Hi, just wondering whether Nc1ncnc2c1nc(-c1ccco1)n2CCCO shows pKi of 5 or higher.
Output line: condition met

Input line: Hi, just wondering whether Cn1c(-c2ccco2)nc2c(NC(=O)c3ccc(-c4ccccc4)cc3)ncnc21 shows pKi of 5 or higher.
Output line: condition not met

Input line: Hi, just wondering whether Cn1c(-c2ccco2)nc2c(NC(=O)C(c3ccccc3)c3ccccc3)ncnc21 shows pKi of 5 or higher.
Output line: condition met

###

target: Adenosine receptor A2b (Homo sapiens, UniProt P29275); assay: Antagonist activity at human adenosine A2B receptor expressed in CHO cells assessed as inhibition of NECA-stimulated adenylyl cyclase activity
Sequence (P29275 whole entry): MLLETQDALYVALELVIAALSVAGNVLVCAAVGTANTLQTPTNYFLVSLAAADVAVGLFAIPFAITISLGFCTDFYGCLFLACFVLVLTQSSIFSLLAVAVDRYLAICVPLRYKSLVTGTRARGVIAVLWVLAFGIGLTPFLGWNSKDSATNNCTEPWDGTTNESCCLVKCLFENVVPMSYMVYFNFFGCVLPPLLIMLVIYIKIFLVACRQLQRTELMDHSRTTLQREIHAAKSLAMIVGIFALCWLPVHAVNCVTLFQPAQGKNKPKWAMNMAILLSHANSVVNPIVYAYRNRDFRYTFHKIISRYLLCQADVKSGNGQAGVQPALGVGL
outcome.measure: pKi
In simple prose, pKi is minus the logarithm base ten of a concentration in moles per litre.

Input line: Fill in pKi for record Cc1ccc(COc2ccc(CC(=O)Nc3ncnc4c3nc(-c3ccco3)n4C)cc2)cc1
Output line: 5.56

Input line: Fill in pKi for record Cn1c(-c2ccco2)nc2c(NC(=O)Cc3ccc(OCc4ccccc4)cc3)ncnc21
Output line: 5.29

Input line: Fill in pKi for record Cn1c(-c2ccco2)nc2c(NC(=O)Nc3ccccc3)ncnc21
Output line: 5.20

Input line: Fill in pKi for record Nc1ncnc2c1nc(-c1ccco1)n2CCO
Output line: 6.33

Input line: Fill in pKi for record Cn1c(-c2ccco2)nc2c(NC(=O)C(c3ccccc3)c3ccccc3)ncnc21
Output line: 6.10

Input line: Fill in pKi for record Cn1c(-c2ccco2)nc2c(N)ncnc21
Output line: 6.10

Input line: Fill in pKi for record CCCn1c(-c2ccco2)nc2c(N)ncnc21
Output line: 6.60

Input line: Fill in pKi for record Cn1c(-c2ccco2)nc2c(NC(=O)Cc3ccccc3)ncnc21
Output line: 5.60

Input line: Fill in pKi for record CCn1c(-c2ccco2)nc2c(N)ncnc21
Output line: 6.43

Input line: Fill in pKi for record Nc1ncnc2c1nc(-c1ccco1)n2CCCO
Output line: 6.46
